# Lookup of reported MIC keyed by entry
# System: L. lactis CAB701 strain
# protocol-summary: Antibiotic resistance by E-test (MIC)
# Type: cell-based, Lactococcus lactis subsp. lactis
# protocol-conditions: Lactococcus lactis, CAB701STRAIN; E-test, MRS agar, 37° C., 72 hours; read-out: MIC
Write it as a number; the unit µg/mL goes unstated.

Here's what some known entries look like.
CCC[C@@H]1C[C@@H](C(=O)N[C@@H]([C@H]2O[C@H](SC)[C@H](O)[C@@H](O)[C@H]2O)[C@H](C)Cl)N(C)C1 [Clindamycin]	0.25
O=C(N[C@H](CO)[C@H](O)c1ccc([N+](=O)[O-])cc1)C(Cl)Cl [Chloramphenicol]	1.5
CN(C)[C@@H]1C(O)=C(C(N)=O)C(=O)[C@@]2(O)C(O)=C3C(=O)c4c(O)cccc4[C@@](C)(O)[C@H]3C[C@@H]12 [Tetracycline]	0.094
NC[C@H]1O[C@H](O[C@H]2[C@H](O)[C@@H](O[C@H]3O[C@H](CO)[C@@H](O)[C@H](N)[C@H]3O)[C@H](N)C[C@@H]2N)[C@H](O)[C@@H](O)[C@@H]1O [Kanamycin]	8
[H]/N=C(/N)N[C@H]1[C@H](O)[C@@H](O)[C@H](O[C@@H]2O[C@@H](C)[C@](O)(C=O)[C@H]2O[C@@H]2O[C@@H](CO)[C@H](O)[C@@H](O)[C@@H]2NC)[C@@H](N/C(N)=N\[H])[C@@H]1O [Streptomycin]	16

# input Hello, please tell me recorded MIC for this one: CC1(C)S[C@@H]2[C@H](NC(=O)[C@H](N)c3ccccc3)C(=O)N2[C@H]1C(=O)O [Ampicillin]
# output 0.094
